- assay.name: logP determination by HPLC (EEC directive 79/831 Annex V.A8, reversed-phase C 18)
- Format: physicochemical
- experimental.setup: reversed-phase HPLC column (C 18); HPLC, reversed-phase column (C 18), 43° C., pH 2.3, 0.1% aqueous phosphoric acid/acetonitrile; read-out: log P
endpoint.label: chromatographic logP

[[record]]
compound = "CC(C)(C)OC(=O)N1C(=O)C(C)(C)CC1c1ccc(-c2ccc(OC(F)(F)F)cc2)cc1 (stereo not shown)"
measurement = 4.99


* * *

Readings of chromatographic logP for the listed compounds
- assay.name: logP determination by HPLC (EEC directive 79/831 Annex V.A8, reversed-phase C 18)
- Type: physicochemical
- experimental.setup: reversed-phase HPLC column (C 18), pH 2.3, second HPLC peak of the mixture of diastereomers; reversed-phase C 18, 43° C., pH 2.3; read-out: log P2
endpoint.label: chromatographic logP

[[record]]
compound = "O=S(=O)(O)C1CC(c2ccc(Br)cc2)N=C1c1c(F)cccc1F (stereo not drawn) [Example 12]"
measurement = 1.6

[[record]]
compound = "O=S(=O)(Oc1ccc([C@H]2CC(Br)C(c3c(F)cccc3F)=N2)cc1)C(F)(F)F (stereo partly drawn) [Example 8]"
measurement = 4.49

[[record]]
compound = "O=S(=O)(O)C1CC(c2ccc(-c3ccc(OC(F)(F)F)cc3)cc2)N=C1c1c(F)cccc1F (stereo not drawn) [Example 13]"
measurement = 2.46

